# study_target: T1, Cynomolgus macaques TSLP recombinant protein (Cynomolgus macaques, UniProt Q969D9 29-159 (human entry), limits assumed, biotinylated in the blocking assays (sites not given))
# T1 construct: also called cyTSLP; biotinylated Cynomolgus macaques TSLP protein
# T1 chain: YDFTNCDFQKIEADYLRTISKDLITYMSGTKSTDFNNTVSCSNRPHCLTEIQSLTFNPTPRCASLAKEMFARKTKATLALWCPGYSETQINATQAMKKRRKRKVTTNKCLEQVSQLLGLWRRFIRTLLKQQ
# run_description: competition ELISA, biotin-cynomolgus TSLP to coated cynomolgus TSLPR-Fc
// values below are reported IC50
// note: answer is a bare numeric in nM

# count of solved cases: 4
binder | result_unit | IC50
Ab22 (antibody, V domains shown, Humanized; also called h39G5VHv1/h71G4VKv1; h39G5VHv1/h7IG4VKv1 hIgG1) VH: QVQLVQSGAEVKKPGSSVKVSCKASGYSFISYWIHWVRQAPGQGLEWMGIIDPSDSDTSLNQKFQGRVTLTVDKSSTTAYMELSSLRSEDTAVYYCARSLDGYYDYWGQGTLVTVSS VL: DIQMTQSPSSLSASVGDRVTITCRTSENIYSYLAWYQQKPGKAPKLLIYFAKTLTDGVPSRFSGSGSGTDFTLTISSLQPEDFATYYCQHHYGTPWTFGQGTKVEIK | nM | 1
Murine anti-71G4 (mAb71G4) (antibody, V domains shown, also called murine antibody 71G4) VH: QVQLQQSGAELVMPGASVKMSCKASGYTFTDYWMHWVKQRPGQGLEWIGTIDNSDSDTTYNQKFKGKVTLTVDESSSTAYMQLSSLTSEDSAVYYCARSVDGYLDYWGQGTTLTVSS VL: EIQMTQSPASLSASVGETVTITCRTSENIYSYLAWYQQKQGKSPQLLVYFAKTLTDGVPSRLSGSGSGTQFSLKINSLQPEDFGSYYCQHHYGTPWTFGGGTKLEIK | nM | 0.47
Ab23 (antibody, V domains shown, Humanized; also called h39G5VHv2/h71G4VKv1; h39G5VHv2/h71G4VKv1 hIgG1) VH: QVQLVQSGAEVKKPGSSVKVSCKASGYSFISYWIHWVRQAPGQGLEWMGIIDPSDSDTSLNQKFQGRVTITADESTSTAYMELSSLRSEDTAVYYCARSLDGYYDYWGQGTLVTVSS VL: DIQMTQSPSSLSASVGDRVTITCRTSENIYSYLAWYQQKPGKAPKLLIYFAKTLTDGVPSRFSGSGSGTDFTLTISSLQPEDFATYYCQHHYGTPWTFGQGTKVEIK | nM | 1.54
Ab10 (antibody, V domains shown, Humanized; also called h39G5VHv10/h39G5VKv1) VH: QVQLVQSGAEVKKPGSSVKVSCKASGYTFTDYWMHWVRQAPGQGLEWMGIIDPSDSDTSLNQKFQGRVTITADTSTSTAYMELSSLRSEDTAVYYCARSLDGYYDYWGQGTLVTVSS VL: DIQMTQSPSSLSASVGDRVTITCRASENIYSYLAWYQQKPGKAPKLLIYNARTLPEGVPSRFSGSGSGTDFTLTISSLQPEDFATYYCQHHYTTPWTFGQGTKVEIK | nM | 0.37

Now, please, on to the next binder.
query: I have this binder here, Ab24 (antibody, V domains shown, Humanized; also called h39G5VHv5/h71G4VKv1; h39G5VHv5/h71G4VKv1 hIgG1) VH: QVQLVQSGAEVKKPGSSVKVSCKASGYTFTDYWMHWVRQAPGQGLEWMGIIDPSDSDTSLNQKFQGRVTLTVDTSTSTAYMELSSLRSEDTAVYYCARSLDGYYDYWGQGTLVTVSS VL: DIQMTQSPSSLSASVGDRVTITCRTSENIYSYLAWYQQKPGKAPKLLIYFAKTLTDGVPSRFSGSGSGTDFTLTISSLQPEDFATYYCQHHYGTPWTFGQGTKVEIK , and I need its recorded IC50.
result: 1.63

# credit: patent US20230029835A1
